# Tested on: Mus musculus
# protocol_notes: Antimalarial efficacy against Plasmodium berghei in mice (Mus musculus) when administered intravenously each day for 4 days to five mice (Mus musculus) per dose regimen
# Type: functional
# condition_context: iv, 96 h
assay_metric: ED90 (mg/kg)
Provide only the numeric value, understood in mg/kg.

>>> test_value("CO[C@@H]1O[C@@]2(c3ccc(F)cc3)CC[C@H]3CCCC[C@]31OO2")
8
>>> test_value("CO[C@@H]1O[C@@]2(c3ccc(C(=O)O)cc3)CC[C@H]3CCCC[C@]31OO2")
55
>>> test_value("C[C@@H]1[C@H](OCc2ccc(C(=O)O)cc2)O[C@@H]2O[C@@]3(C)CC[C@@H]4[C@@H](C)CC[C@@H]1[C@]24OO3")
15.5

Form: compound = CO[C@H]1O[C@@]2(c3ccc(C(=O)O)cc3)CC[C@H]3CCCC[C@]31OO2 ; ED90 = 48
